Target: human capsaicin receptor (Homo sapiens)
Construct: expressed in transfected cells
Sequence (Q8NER1 whole entry): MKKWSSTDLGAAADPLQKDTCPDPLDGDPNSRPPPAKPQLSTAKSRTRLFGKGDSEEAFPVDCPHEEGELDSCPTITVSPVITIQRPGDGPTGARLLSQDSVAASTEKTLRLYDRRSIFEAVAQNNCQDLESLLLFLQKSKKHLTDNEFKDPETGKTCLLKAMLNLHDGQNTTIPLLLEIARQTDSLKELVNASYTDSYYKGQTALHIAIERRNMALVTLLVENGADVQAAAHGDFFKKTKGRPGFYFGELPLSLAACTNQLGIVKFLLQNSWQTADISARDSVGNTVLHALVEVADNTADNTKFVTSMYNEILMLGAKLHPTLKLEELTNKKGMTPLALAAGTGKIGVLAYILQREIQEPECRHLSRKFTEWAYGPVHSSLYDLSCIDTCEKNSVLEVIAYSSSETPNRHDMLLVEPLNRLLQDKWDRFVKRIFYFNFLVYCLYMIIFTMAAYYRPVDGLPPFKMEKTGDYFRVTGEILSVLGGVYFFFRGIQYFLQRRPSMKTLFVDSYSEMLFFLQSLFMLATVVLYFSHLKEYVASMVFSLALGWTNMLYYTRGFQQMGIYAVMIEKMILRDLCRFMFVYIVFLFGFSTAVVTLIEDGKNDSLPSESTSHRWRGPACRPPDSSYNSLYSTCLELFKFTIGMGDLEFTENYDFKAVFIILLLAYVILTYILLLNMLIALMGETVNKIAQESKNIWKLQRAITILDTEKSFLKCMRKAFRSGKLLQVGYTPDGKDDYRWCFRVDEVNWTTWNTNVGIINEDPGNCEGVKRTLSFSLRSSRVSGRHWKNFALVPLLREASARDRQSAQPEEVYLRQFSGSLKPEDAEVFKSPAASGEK
Assay: Calcium mobilization assay, determination of antagonist activity (Example 6)
Format: cell-based
Conditions: Table III; assay provided in Example 6; cells expressing human capsaicin receptor, capsaicin at EC50
Each entry below lists one item and its recorded IC50 value.

With human capsaicin receptor (Homo sapiens) as the test system, CN(C)CCCNc1cc(C(F)(F)F)c(-c2cnc3c(Nc4ccc(C(F)(F)F)cn4)ccnc3n2)nn1 [Compound 139] showed IC50 of < 1000 nM

With human capsaicin receptor (Homo sapiens) as the test system, CCN(CC)CCN(CC)c1cc(C(F)(F)F)c(-c2cnc3c(Nc4ccc(C(F)(F)F)cn4)ccnc3n2)nn1 [Compound 99] showed IC50 of < 1000 nM

More entries:
With human capsaicin receptor (Homo sapiens) as the test system, CN(C)C1CCN(c2cc(C(F)(F)F)c(-c3cnc4c(Nc5ccc(C(F)(F)F)cn5)ccnc4n3)nn2)CC1 [Compound 96] showed IC50 of < 1000 nM

With human capsaicin receptor (Homo sapiens) as the test system, OCCNc1cc(C(F)(F)F)c(-c2cnc3c(Nc4ccc(C(F)(F)F)cn4)ccnc3n2)nn1 [Compound 168] showed IC50 of < 1000 nM

With human capsaicin receptor (Homo sapiens) as the test system, FC(F)(F)c1ccc(Nc2ccnc3nc(-c4nnc(NC5CCC5)cc4C(F)(F)F)cnc23)nc1 [Compound 107] showed IC50 of < 1000 nM

With human capsaicin receptor (Homo sapiens) as the test system, CN1CCCC1CCNc1cc(C(F)(F)F)c(-c2cnc3c(Nc4ccc(C(F)(F)F)cn4)ccnc3n2)nn1 (stereo not shown) [Compound 72] showed IC50 of < 1000 nM

With human capsaicin receptor (Homo sapiens) as the test system, CCCC(C)Nc1cc(C(F)(F)F)c(-c2cnc3c(Nc4ccc(C(F)(F)F)cn4)ccnc3n2)nn1 (stereo not shown) [Compound 158] showed IC50 of < 1000 nM
